Reference source for all entries: patent US9969775B2

Target: hCGRP receptor (CALCRL:RAMP1) (Homo sapiens, UniProt O60894+Q16602)
Construct: host or cells: GeneBLAzer CALCRL:RAMP1-CRE-bla Freestyle 293F
Sequence (Q16602 23-461): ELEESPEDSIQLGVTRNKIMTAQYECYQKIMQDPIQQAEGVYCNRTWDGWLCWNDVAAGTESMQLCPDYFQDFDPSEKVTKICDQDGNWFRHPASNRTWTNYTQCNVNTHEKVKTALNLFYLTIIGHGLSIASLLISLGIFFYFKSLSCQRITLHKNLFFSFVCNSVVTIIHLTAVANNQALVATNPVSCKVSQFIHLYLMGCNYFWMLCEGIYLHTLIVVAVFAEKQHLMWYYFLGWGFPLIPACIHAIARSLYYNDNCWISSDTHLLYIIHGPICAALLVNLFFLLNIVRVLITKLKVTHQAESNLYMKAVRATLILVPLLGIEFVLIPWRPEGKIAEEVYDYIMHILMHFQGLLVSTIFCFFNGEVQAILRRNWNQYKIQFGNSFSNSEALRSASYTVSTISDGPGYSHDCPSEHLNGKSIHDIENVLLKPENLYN
Sequence (O60894 27-148): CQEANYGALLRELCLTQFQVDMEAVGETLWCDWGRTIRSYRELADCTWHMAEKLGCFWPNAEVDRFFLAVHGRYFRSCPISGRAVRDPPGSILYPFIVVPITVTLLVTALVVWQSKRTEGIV
Protocol: CGRP receptor antagonist activity measured by cAMP assay (HTRF)
Format: cell-based
Recorded Conditions: GeneBLAzer CALCRL:RAMP1-CRE-bla Freestyle 293F cells; agonist human α-CGRP; 30 minutes; read-out: hCGRP-R IC50 Ave
Numbered stars: 1 amine (or outer) side, 2 acyl side, 3 side chain; on linkers, the order of the positions; unused ones are H or OH. Bridge positions count the residues as written; N and C are the ends. Square brackets hold non-standard residues; d marks the D form. Peptide text beside a SMILES is read from it. * marks the point of attachment. Phe(3-CH2NH2) = O=C([C@H](Cc1cccc(CN[*:3])c1)N[*:1])[*:2]; Phe(3-CONH2) = NC(=O)c1cccc(C[C@H](N)C(=O)O)c1; Phe(2-CONH2) = NC(=O)c1ccccc1C[C@H](N)C(=O)O; X5 = O=C([C@H](Cc1ccc(CO)cc1)N[*:1])[*:2]; Picolinoyl(3,5-F2) = O=C(c1ncc(F)cc1F)*; Picolinoyl(5-F) = O=C(c1ccc(F)cn1)*; Orn(iPr) = CC(C)NCCC[C@H](N)C(=O)O; Orn(Me2) = CN(C)CCC[C@H](N)C(=O)O; Benzoyl(4-F) = O=C(c1ccc(F)cc1)*; 3Pal = N[C@@H](Cc1cccnc1)C(=O)O; Picolinoyl = O=C(c1ccccn1)*; ΔPro = O=C(O)[C@@H]1C=CCN1; Orn = NCCC[C@H](N)C(=O)O; Dap = NC[C@H](N)C(=O)O; X7 = O=C(c1cc(F)ccn1)*; X1 = O=C(c1ncccc1F)*; X10 = O=C(c1nccs1)*
Readout Name: pIC50
The value called pIC50 is obtained by taking minus log10 of the concentration in mol/L.

Record excerpt, results attached:
Compound | Target | pIC50
CC(C)[C@@H]1NC(=O)[C@H](CC(=O)O)NC(=O)[C@H](CCCNC(=N)N)NC(=O)[C@@H](NC(=O)[C@H](Cc2ccc(O)cc2)NC(=O)[C@H](NC(=O)c2ncc(F)cc2F)C(C)C)CSSC[C@@H](C(=O)N[C@@H](Cc2cccnc2)C(N)=O)NC(=O)[C@H](Cc2ccccc2)NC(=O)[C@@H]2CCCN2C(=O)CNC1=O [Compound 35] ({Picolinoyl(3,5-F2)}-[dV]YCRDVGPFC[3Pal]-NH2; disulfide 3-10) | hCGRP receptor (CALCRL:RAMP1) (Homo sapiens, UniProt O60894+Q16602) | 10.22
CC(C)[C@@H]1NC(=O)[C@H](CC(=O)O)NC(=O)[C@H](CCCNC(=N)N)NC(=O)[C@@H](NC(=O)[C@H](Cc2ccccc2C(N)=O)NC(=O)[C@H](NC(=O)c2ccc(F)cc2)C(C)C)CSSC[C@@H](C(=O)N[C@@H](Cc2cccnc2)C(N)=O)NC(=O)[C@H](Cc2ccccc2)NC(=O)[C@@H]2CCCN2C(=O)CNC1=O [Compound 15] ({Benzoyl(4-F)}-[dV][Phe(2-CONH2)]CRDVGPFC[3Pal]-NH2; disulfide 3-10) | hCGRP receptor (CALCRL:RAMP1) (Homo sapiens, UniProt O60894+Q16602) | 10.00
CC(C)[C@@H]1NC(=O)[C@H](CC(=O)O)NC(=O)[C@H](CCCNC(=N)N)NC(=O)[C@@H](NC(=O)[C@H](Cc2ccc(O)cc2)NC(=O)[C@H](NC(=O)c2nccs2)C(C)C)CSSC[C@@H](C(=O)N[C@@H](Cc2cccnc2)C(N)=O)NC(=O)[C@H](Cc2ccccc2)NC(=O)[C@@H]2CCCN2C(=O)CNC1=O [Compound 33] (X10-[dV]YCRDVGPFC[3Pal]-NH2; disulfide 3-10) | hCGRP receptor (CALCRL:RAMP1) (Homo sapiens, UniProt O60894+Q16602) | 10.00
CC(C)[C@@H]1NC(=O)[C@H](CC(=O)O)NC(=O)[C@H](CN)NC(=O)[C@@H](NC(=O)[C@H](Cc2ccc(O)cc2)NC(=O)[C@H](NC(=O)c2ccc(F)cc2)C(C)C)CSSC[C@@H](C(=O)N[C@@H](Cc2cccnc2)C(N)=O)NC(=O)[C@H](Cc2cccc(C(N)=O)c2)NC(=O)[C@@H]2CCCN2C(=O)CNC1=O [Compound 6] ({Benzoyl(4-F)}-[dV]YC[Dap]DVGP[Phe(3-CONH2)]C[3Pal]-NH2; disulfide 3-10) | hCGRP receptor (CALCRL:RAMP1) (Homo sapiens, UniProt O60894+Q16602) | 9.77
CC(C)[C@@H]1NC(=O)[C@H](CC(=O)O)NC(=O)[C@H](CCCNC(=N)N)NC(=O)[C@@H](NC(=O)[C@H](Cc2ccc(O)cc2)NC(=O)[C@H](NC(=O)c2cc(F)ccn2)C(C)C)CSSC[C@@H](C(=O)N[C@@H](Cc2cccnc2)C(N)=O)NC(=O)[C@H](Cc2ccccc2)NC(=O)[C@@H]2CCCN2C(=O)CNC1=O [Compound 18] (X7-[dV]YCRDVGPFC[3Pal]-NH2; disulfide 3-10) | hCGRP receptor (CALCRL:RAMP1) (Homo sapiens, UniProt O60894+Q16602) | 9.80
CC(C)[C@@H]1NC(=O)[C@H](CC(=O)O)NC(=O)[C@H](CCCNC(=N)N)NC(=O)[C@@H](NC(=O)[C@H](Cc2ccc(O)cc2)NC(=O)[C@H](NC(=O)c2ccc(F)cc2)C(C)C)CSSC[C@@H](C(=O)N[C@@H](Cc2cccnc2)C(N)=O)NC(=O)[C@H](Cc2cccnc2)NC(=O)[C@@H]2CCCN2C(=O)CNC1=O [Compound 2] ({Benzoyl(4-F)}-[dV]YCRDVGP[3Pal]C[3Pal]-NH2; disulfide 3-10) | hCGRP receptor (CALCRL:RAMP1) (Homo sapiens, UniProt O60894+Q16602) | 10.10

# input Request body: readout pIC50, system hCGRP receptor (CALCRL:RAMP1) (Homo sapiens, UniProt O60894+Q16602), query CC(C)[C@@H]1NC(=O)[C@H](CC(=O)O)NC(=O)[C@H](CCCN)NC(=O)[C@@H](NC(=O)[C@H](Cc2ccc(O)cc2)NC(=O)[C@H](NC(=O)c2ccccn2)C(C)C)CSSC[C@@H](C(=O)N[C@@H](Cc2cccnc2)C(N)=O)NC(=O)[C@H](Cc2ccc(CO)cc2)NC(=O)[C@@H]2CCCN2C(=O)CNC1=O [Compound 25] (Picolinoyl-[dV]YC[Orn]DVGP[X5]C[3Pal]-NH2; disulfide 3-10) . Return the value.
# output 10.15

# input Param readout= pIC50; system= hCGRP receptor (CALCRL:RAMP1) (Homo sapiens, UniProt O60894+Q16602); entry= CC(C)NCCC[C@@H]1NC(=O)[C@@H](NC(=O)[C@H](Cc2ccc(O)cc2)NC(=O)[C@H](NC(=O)c2ccc(F)cn2)C(C)C)CSSC[C@@H](C(=O)N[C@@H](Cc2cccnc2)C(N)=O)NC(=O)[C@H](Cc2cccc(C(N)=O)c2)NC(=O)[C@@H]2C=CCN2C(=O)CNC(=O)[C@H](C(C)C)NC(=O)[C@H](CC(=O)O)NC1=O [Compound 68] ({Picolinoyl(5-F)}-[dV]YC[Orn(iPr)]DVG[ΔPro][Phe(3-CONH2)]C[3Pal]-NH2; disulfide 3-10) ; returns value.
# output 10.22

# input What measured pIC50 is associated with CC(C)[C@@H]1NC(=O)[C@H](CC(=O)O)NC(=O)[C@H](CCCN(C)C)NC(=O)[C@@H](NC(=O)[C@H](Cc2ccc(O)cc2)NC(=O)[C@H](NC(=O)c2ncccc2F)C(C)C)CSSC[C@@H](C(=O)N[C@@H](Cc2cccnc2)C(N)=O)NC(=O)[C@H](Cc2ccccc2)NC(=O)[C@@H]2CCCN2C(=O)CNC1=O [Compound 46] (X1-[dV]YC[Orn(Me2)]DVGPFC[3Pal]-NH2; disulfide 3-10) on hCGRP receptor (CALCRL:RAMP1) (Homo sapiens, UniProt O60894+Q16602)?
# output 9.82

# input Reported pIC50 for hCGRP receptor (CALCRL:RAMP1) (Homo sapiens, UniProt O60894+Q16602), given CC(C)NCCC[C@@H]1NC(=O)[C@@H](NC(=O)[C@H](Cc2ccccc2C(N)=O)NC(=O)[C@H](NC(=O)c2ccccn2)C(C)C)CSSC[C@@H](C(=O)N[C@@H](Cc2cccnc2)C(N)=O)NC(=O)[C@H](Cc2cccc(CN)c2)NC(=O)[C@@H]2C=CCN2C(=O)CNC(=O)[C@H](C(C)C)NC(=O)[C@H](CC(=O)O)NC1=O [Compound 54] (Picolinoyl-[dV][Phe(2-CONH2)]C[Orn(iPr)]DVG[ΔPro][Phe(3-CH2NH2)]C[3Pal]-NH2; disulfide 3-10) ?
# output 9.77
